These data points were gathered from paper PMC9325861.

Test system: mouse PCLS
ASSAY_INFO: Viability of mouse PCLS by ATP content (ATP bioluminescence, normalized to protein)
Type: cell-based
STUDY_CONDITIONS: Mus musculus, read-out: IC 50% (best-fit)
OUTCOME_MEASURE: pIC50
Conceptually, pIC50 converts a concentration in mol/L into minus its log10.

Request: Request the reported pIC50 associated with COc1ccc(Cl)cc1C(=O)NCCc1ccc(S(=O)(=O)NC(=O)NC2CCCCC2)cc1 [GB, Glibenclamide]
Response: 4.16
